Origin of the recorded values: ChEMBL document CHEMBL1806409

tested on: NCI-H460; experiment: Cytotoxicity against human H460 cells assessed as cell growth inhibition after 72 hrs by MTT assay; type: functional, cell-based; conditions: NCI-H460, 72 h
Response field label: string, one of t (IC50 strictly below 2000 nM) or f.

Does the reported IC50 of the following compound sit strictly below 2000 nM? Cc1ccc2c(c1)/C(=c1/sc(=Cc3ccc4c(c3)OCO4)c(=O)n1CCN(C)C)C(=O)N2 f

Record CCN(CC)CCCn1c(=O)c(=Cc2cc(OC)c(OC)c(OC)c2)s/c1=C1\C(=O)Nc2ccccc21 (mixture of isomers) : is its IC50 strictly below 2000 nM? t

Answer whether the compound CCN(CC)CCCn1c(=O)c(=Cc2ccc3c(c2)OCO3)s/c1=C1\C(=O)Nc2cc(F)ccc21 (mixture of isomers) has IC50 strictly less than 2000 nM t

Please let me know if CCN(CC)CCCn1c(=O)c(=Cc2ccccc2O)s/c1=C1\C(=O)Nc2ccccc21 (mixture of isomers) shows IC50 below 2000 nM. f

# check: IC50 < 2000 nM for CCN(CC)CCCn1c(=O)c(=Cc2ccc3c(c2)OCO3)s/c1=C1\C(=O)Nc2ccc(Cl)cc21 (mixture of isomers) t
